# Tested on: glycogen synthase kinase-3 (GSK3A per assay name; protocol says GSK3B)
# Experiment: GSK3 binders on small-molecule microarrays, primary screen, biochemical, small-molecule microarray, 635 nm fluorescence, GSK3A (AID 1103); also: the record names both GSK3A and GSK3B
# Run Conditions: small-molecule microarray binding, fluorescence 635 nm; higher = more signal
Test Readout: composite z-score
Lab note: write the figure by itself, no unit.

I am curious: what composite z-score value has been reported for C=CCN1C(=O)[C@@]2(O[C@@H](CCO)[C@H]([Si](C)(C)c3ccc(OC)cc3)[C@H]2C)c2cc(NC(=O)c3ccc(OC)cc3)ccc21 ? 0.587

I am curious: what composite z-score value has been reported for C=C(COC)/C(=C/C[C@@H](OC(C)=O)c1ccc(OCCO)cc1)c1cc(C(=O)OC)ccc1OC ? 0.794

I am curious: what composite z-score value has been reported for COc1ccc(C(O)C2C=CC3C(=O)N(c4ccccc4)C(=O)C3N2Nc2ccc(C(C)C)cc2)cc1OCc1ccccc1 (stereo unspecified) ? 1.27

I am curious: what composite z-score value has been reported for COCCOC(=O)N1C(=O)[C@@]2(c3cc(C#CCCO)ccc31)[C@H](C(=O)N1CCc3cc(OC)c(OC)cc3C1)[C@H]1C(=O)O[C@H](c3ccccc3)[C@H](c3ccccc3)N1[C@@H]2c1ccc(O)cc1 ? 1.29

I am curious: what composite z-score value has been reported for COc1ccc(CCNC(=O)[C@@H]2c3ccccc3C(=O)N(C3Cc4ccccc4C3)[C@H]2c2ccc(CO)cc2)cc1 ? 0.316

I am curious: what composite z-score value has been reported for COC(=O)[C@@]1(Cc2ccc(OC)cc2)[C@H]2c3cc(C(=O)N4CCCC4)n(Cc4ccccc4)c3C[C@H]2CN1C(=O)c1ccccc1 ? 0.472

---

# Experiment: binders of probe aHhip on microarray, primary screen, stem cell growth factor project, biochemical, small-molecule microarray, fluorescence 635/667 (AID 1087);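 also: score merges spot fluorescence at 667nm with spot signal to noise ratio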
# Run Conditions: higher = more signal
For each of the compounds below, state its composite z-score.
Lab note: write the figure by itself, no unit.

I am curious: what composite z-score value has been reported for [N-]=[N+]=NCc1ccccc1[C@H]1OC(c2ccc(OCCCO)cc2)=N[C@@]1(Cc1ccccc1)C(=O)NCc1ccccc1 ? -0.331

I am curious: what composite z-score value has been reported for COc1ccc(C(=O)Nc2ccc(CN3C(=O)[C@@]4(O[C@@H](CCO)[C@H]([Si](C)(C)c5ccc(OC)cc5)[C@H]4C)c4ccccc43)cc2)cc1 ? -0.0645

I am curious: what composite z-score value has been reported for COc1ccc([Si](C)(C)[C@@H]2[C@@H](CC(=O)N3Cc4ccccc4C[C@H]3CO)O[C@]3(C(=O)N(C)c4c(Br)cc(C)cc43)[C@H]2C)cc1 ? -0.0672

I am curious: what composite z-score value has been reported for COC(=O)[C@@]1(Cc2ccccc2)[C@H]2c3cc(C(=O)N(C)C)n(CCSCCO)c3C[C@H]2CN1C(=O)c1ccccc1 ? 0.347

I am curious: what composite z-score value has been reported for COC(=O)[C@@]1(Cc2ccc(OC)cc2)[C@H]2c3cc(C(=O)N4CCCC4)n(Cc4ccccc4)c3C[C@H]2CN1C(=O)c1ccccc1 ? 0.671

I am curious: what composite z-score value has been reported for CC(C)(C)OC(=O)CC[C@]1(C(=O)NCC(O)CO)COC(c2ccc(OCCCO)cc2)=N1 (some centres not stated) ? -0.0645

I am curious: what composite z-score value has been reported for COCCOC(=O)N1C(=O)[C@@]2(c3cc(C#Cc4ccc(OC)cc4)ccc31)[C@H](c1ccc(O)cc1)N1[C@H](c3ccccc3)[C@H](c3ccccc3)OC(=O)[C@H]1[C@@H]2C(=O)NC[C@H](O)c1ccccc1 ? 0.192
